Molecular target: T1, class I MHC receptor HLA-A2 on T2 cells (human)
T1 construct: detected on the cell surface with a mouse anti-human HLA-A2 monoclonal antibody and goat anti-mouse IgG F(ab')2-FITC; also called HLA-A2 receptor; HLA-A2 class I MHC
Assay: T2 cells pulsed with peptide + b2m, anti-HLA-A2 flow cytometry; Average

| binder | fluorescence index |
| --- | --- |
| LILGLVWTL [Filamin B peptide #1] | 2.82 |
| SLQESGLKV [Filamin B peptide #4] | 1.79 |
| GLAPLEVRV [Filamin B peptide #3] | 3.93 |
| KLILGLVWT [Filamin B peptide #7] | 1.32 |
| GQGDVMVFV [Filamin B peptide #6] | 2.32 |

Values were extracted from patent US20090053750A1.
